Measured values drawn from patent US11185074B2 for this set.

Recorded melting point values for a group of compounds are listed next.

COMPOUND	RESULT
C=CCC(C)(C)NC(=O)c1cnc2c(F)c(F)ccc2c1	116 to 119 °C
CC(CC1CCCC1)(CC(F)(F)F)NC(=O)c1cnc2ccccc2c1 (stereo not shown)	94 to 103 °C
C=C(C)CC(COC)(CC(=C)C)NC(=O)c1cnc2c(F)cccc2c1	97 to 100 °C
C=C(C)CC(C)(CC(=C)C)NC(=O)c1cnc2c(F)c(F)ccc2c1	117 to 120 °C
CC(CC1CCCCC1)(CC(F)(F)F)NC(=O)c1cnc2ccccc2c1 (stereo not shown)	70 to 87 °C
CC(C)CC(CC(C)C)NC(=O)c1cnc2c(F)cccc2c1	170 to 172 °C
O=C(NC(CC1CC1)CC1CC1)c1cnc2ccccc2c1	123 to 125 °C
CC(C)=C(F)CC(C)(CC(C)C)NC(=O)c1cnc2ccccc2c1 (stereo not shown)	95 to 97 °C
Cc1cccc2cc(C(=O)NC(C)(CC3CCCC3)CC(F)(F)F)cnc12 (stereo not shown)	108 to 116 °C

Can you look up the measured melting point of CC(CC1CCCC1)(CC(F)(F)F)NC(=O)c1cnc2c(F)cccc2c1 (stereo not shown) for me?
100 to 102 °C

----------
Recorded melting point values for a group of molecules are listed next.

Example cases with answers are listed next.
MOLECULE	melting point
CC(C)CC(C)(C#N)NC(=O)c1cnc2c(F)cccc2c1 (stereo not drawn) [E-35]	167 to 171 °C
CC(C)CC(C)(CCc1ccccc1)NC(=O)c1cnc2c(F)cccc2c1 (stereo not drawn) [E-8]	170 to 175 °C
CC(C)=C(F)CC(CC(C)C)NC(=O)c1cnc2c(F)cccc2c1 (stereo not drawn) [E-18]	75 to 76 °C
C=C(C)CC(C)(CC(=C)C)NC(=O)c1cnc2c(F)cccc2c1 [E-2]	116 to 118 °C
CC1(CC(C)(CC(F)(F)F)NC(=O)c2cnc3c(F)cccc3c2)CC1 (stereo not drawn) [E-10]	126 to 128 °C

Can you look up the measured melting point of C[C@@](CC1CCCC1)(CC(F)(F)F)NC(=O)c1cnc2c(F)cccc2c1 [F-4] for me?
100 to 101 °C
